# Tested on: Pseudomonas aeruginosa PAO1
# measurement notes: ≥ marks a high value that may be exact or a test limit, other limits are often not marked, values filed in µg/mL are converted to µM
property measured: MIC

* CC(C)C[C@H](NC(=O)CNC(=O)[C@H](Cc1c[nH]c2ccccc12)NC(=O)CNC(=O)[C@H](CC(C)C)NC(=O)[C@H](CCCCN)NC(=O)[C@@H](N)CCCCN)C(=O)N[C@@H](CCCCN)C(=O)N[C@@H](CCCCN)C(N)=O | > 128 µM

q: Can you look up MIC on Pseudomonas aeruginosa PAO1 for CC(C)C[C@H](NC(=O)[C@@H]1CCCN1C(=O)[C@H](CCCCN)NC(=O)[C@H](CC(C)C)NC(=O)[C@H](CC(C)C)NC(=O)[C@@H]1CCCN1C(=O)[C@H](CCCCN)NC(=O)[C@H](CC(C)C)NC(=O)[C@H](CC(C)C)NC(=O)[C@@H]1CCCN1C(=O)[C@H](CCCCN)NC(=O)[C@H](CC(C)C)NC(=O)[C@H](CC(C)C)NC(=O)[C@@H]1CCCN1C(=O)[C@H](CCCCN)NC(=O)[C@@H](N)CC(C)C)C(N)=O ?
a: > 64 µM

q: Then this molecule: CC[C@H](C)[C@H](NC(=O)[C@H](C)NC(=O)[C@H](CCCCN)NC(=O)[C@@H]1CCCN1C(=O)[C@@H](NC(=O)[C@H](CC(C)C)NC(=O)[C@H](CO)NC(=O)[C@H](Cc1ccccc1)NC(=O)[C@H](CC(C)C)NC(=O)[C@@H](N)Cc1ccccc1)[C@@H](C)CC)C(=O)NCC(=O)NCC(=O)N[C@@H](CC(C)C)C(=O)N[C@H](C(=O)N[C@@H](CO)C(=O)N[C@@H](C)C(=O)N[C@@H](Cc1ccccc1)C(=O)N[C@@H](CCCCN)C(N)=O)[C@@H](C)CC
a: > 66.6 µM

q: # iterate: CC[C@H](C)[C@H](NC(=O)[C@H](CCCCN)NC(=O)[C@H](CCC(=O)O)NC(=O)[C@H](Cc1c[nH]c2ccccc12)NC(=O)[C@H](Cc1ccccc1)NC(=O)[C@H](CCCCN)NC(=O)CNC(=O)[C@H](CC(C)C)NC(=O)[C@H](C)N)C(=O)N[C@@H](CCCCN)C(=O)N[C@@H](CO)C(=O)N[C@@H](CC(C)C)C(=O)N[C@@H](Cc1ccccc1)C(N)=O
a: > 81.7 µM

q: Same question, CC(C)C[C@H](NC(=O)[C@@H]1CCCN1C(=O)[C@H](CCCN=C(N)N)NC(=O)[C@H](CC(C)C)NC(=O)[C@H](CC(C)C)NC(=O)[C@@H]1CCCN1C(=O)[C@H](CCCN=C(N)N)NC(=O)[C@H](CC(C)C)NC(=O)[C@H](CC(C)C)NC(=O)[C@@H]1CCCN1C(=O)[C@H](CCCN=C(N)N)NC(=O)[C@H](CC(C)C)NC(=O)[C@H](CC(C)C)NC(=O)[C@@H]1CCCN1C(=O)[C@H](CCCN=C(N)N)NC(=O)[C@@H](N)CC(C)C)C(N)=O this time
a: > 64 µM
